From: patent US20240376185A1

molecular target: tetanus neurotoxin (TeNT), authentic tetanus holotoxin (Clostridium tetani, UniProt P04958 2-1315); assay: GT1b-TeNT inhibition ELISA, EC at A450 0.59
Sequence (P04958 2-457 limits assumed, chain 1 of 2): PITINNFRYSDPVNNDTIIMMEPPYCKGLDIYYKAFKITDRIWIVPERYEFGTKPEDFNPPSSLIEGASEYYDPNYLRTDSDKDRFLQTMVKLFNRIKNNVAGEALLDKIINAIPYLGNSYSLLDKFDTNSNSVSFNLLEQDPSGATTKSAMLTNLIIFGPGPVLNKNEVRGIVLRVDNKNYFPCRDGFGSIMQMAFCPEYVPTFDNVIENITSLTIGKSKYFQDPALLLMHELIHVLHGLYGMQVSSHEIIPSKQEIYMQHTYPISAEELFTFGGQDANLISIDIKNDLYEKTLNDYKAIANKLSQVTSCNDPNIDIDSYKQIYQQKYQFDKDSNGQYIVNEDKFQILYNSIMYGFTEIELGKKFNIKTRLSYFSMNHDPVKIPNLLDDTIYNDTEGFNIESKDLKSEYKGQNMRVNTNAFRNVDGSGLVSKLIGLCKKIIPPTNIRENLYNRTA
Sequence (P04958 458-1315 limits assumed, chain 2 of 2): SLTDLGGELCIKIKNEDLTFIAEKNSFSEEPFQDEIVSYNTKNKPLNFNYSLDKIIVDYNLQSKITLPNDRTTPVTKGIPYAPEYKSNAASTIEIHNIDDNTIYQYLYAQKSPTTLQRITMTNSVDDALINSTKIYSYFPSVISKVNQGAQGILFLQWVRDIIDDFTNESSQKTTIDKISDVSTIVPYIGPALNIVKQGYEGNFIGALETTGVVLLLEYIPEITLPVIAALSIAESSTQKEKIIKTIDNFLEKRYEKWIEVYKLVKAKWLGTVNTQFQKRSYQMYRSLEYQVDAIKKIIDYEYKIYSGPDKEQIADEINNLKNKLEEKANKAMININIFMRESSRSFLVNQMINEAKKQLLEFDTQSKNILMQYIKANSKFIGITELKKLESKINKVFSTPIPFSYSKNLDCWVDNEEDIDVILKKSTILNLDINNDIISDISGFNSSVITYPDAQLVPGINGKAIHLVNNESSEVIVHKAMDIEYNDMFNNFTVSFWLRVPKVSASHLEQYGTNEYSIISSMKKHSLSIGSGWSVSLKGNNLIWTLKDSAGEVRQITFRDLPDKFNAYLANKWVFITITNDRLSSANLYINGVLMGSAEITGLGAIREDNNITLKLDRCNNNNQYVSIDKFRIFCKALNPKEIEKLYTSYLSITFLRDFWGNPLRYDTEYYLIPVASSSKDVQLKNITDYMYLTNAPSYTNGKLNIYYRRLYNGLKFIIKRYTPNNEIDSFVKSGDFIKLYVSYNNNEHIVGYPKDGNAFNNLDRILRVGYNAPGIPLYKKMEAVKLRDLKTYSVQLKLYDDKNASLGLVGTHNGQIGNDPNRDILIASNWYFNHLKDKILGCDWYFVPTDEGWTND
readout-label: concentration giving A450 of 0.59 (µg/mL)
Numeric answer only, unit µg/mL assumed.

Check out these entries, answers already filled in.
binder | readout-label | reported-result
SVT15L (VHH) VHH: QVQLQESGGGLVQTGGSLRLSCRASGRAFANYHFGWFRQAPGKDREFVASISWKGGSTYYANFALGRFTSSVDRAESSVYLQMSGLTPEDTATYYCAAHDGGDWNYHTGMDYWGKGILVTVSS | concentration giving A450 of 0.59 | 0.072
SVT06L (VHH) VHH: QVQLQESGGGSVQAGGSLRLSCTASELSYDDYTIAWFRRAAGEGRVEDGEGVASITKSYDRAYDNKINYGHSVKGRFTISRDNAKNTVYLQMTDLLPSDTAVYYCALDITPPGGVGASLTEGFLFDYWGQGTQVTVSS | concentration giving A450 of 0.59 | 0.317
SVT16L (VHH) VHH: QVQLQESGGGSVQAGDSLRLSCAASGRTISNYAMGWFRQAPGKQREFVAAISRSDNTYYTDSVKGRFTISRDNAKNTLYLQMNSLKPEETAVYYCAADPNLMYESKWKYRALEAWGQGTLVTVSS | concentration giving A450 of 0.59 | 0.047
SVT31L (VHH) VHH: QVQLQESGGGSVQAGGSLTLSCAASEFSYNDYTIAWFRRAAGKGRVEDGEGVASITKSYDRAYDNRIHYADSVKGRFTISRDNAKNTVYLQMTSLNPSDTAVYYCALDITPPGGIGASLTEGFLFDYWGQGTQVTVSS | concentration giving A450 of 0.59 | 0.986
SVT15L-3FW4M (VHH) VHH: QVQLQESGGGLVQTGGSLRLSCRASGRAFANYHFGWFRQAPGKDREFVASISWKGGSTYYANFALGRFTSSVDRAESSVYLQMSGLTPEDTATYYCAAHDGGDWNYHTGMDYWGQGTQVTVSS | concentration giving A450 of 0.59 | 0.039

// below: concentration giving A450 of 0.59 requested for another binder
For this binder ( SVT25L (VHH) VHH: QVQLQESGGGLVQAGGSLRLSCAASGRTISVYAMGWFRQAPGKQREFVAAISRSDNTYYTDSVKGRFTISRDNVKNTLYLQMNSLKPEETAVYYCAADPNLMYETKWKYRALEAWGQGTLVTVSS ), measured concentration giving A450 of 0.59 is 0.133
